test-target: GABAA receptors (α5β2γ2) (Homo sapiens, UniProt P18507+P31644)
Construct: expressed in transfected cells
Sequence (P47870 25-512, one chain of several, further chain): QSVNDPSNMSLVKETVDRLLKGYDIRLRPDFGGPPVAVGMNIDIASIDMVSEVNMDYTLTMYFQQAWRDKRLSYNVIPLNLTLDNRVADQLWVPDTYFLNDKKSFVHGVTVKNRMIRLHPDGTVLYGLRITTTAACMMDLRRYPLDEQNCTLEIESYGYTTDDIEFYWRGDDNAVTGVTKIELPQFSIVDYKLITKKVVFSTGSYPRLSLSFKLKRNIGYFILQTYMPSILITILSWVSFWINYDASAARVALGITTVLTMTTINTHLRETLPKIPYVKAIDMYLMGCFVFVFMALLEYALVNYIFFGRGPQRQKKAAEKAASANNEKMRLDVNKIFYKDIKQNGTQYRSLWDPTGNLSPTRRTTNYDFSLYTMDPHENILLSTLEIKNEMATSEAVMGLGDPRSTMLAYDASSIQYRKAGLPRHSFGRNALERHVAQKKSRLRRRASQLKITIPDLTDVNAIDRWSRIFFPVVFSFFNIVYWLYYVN
method-summary: Positive allosteric modulator activity: potentiation of EC20 GABA current in oocytes
Format: cell-based
condition-info: read-out: GABA α5 Functional Data (potentiation of EC20 GABA); @ 100 nM; ranges
Experimental: On day 1, 1 ng/32 nL of GABAA α5β2γ2 cDNA was injected into one oocyte. Test starts on day 2. The cDNA injected to the oocytes was a mix of alpha, beta and gamma, their ratio is 1:1:10 (by weight) and the total weight of the mixed 3 subunits to be injected in one oocyte was 1 ng in 32 nl volume. The injected oocytes can also be tested on day 3. In such case, the cDNA amount injected to the oocytes should be reduced by 20%. 1). […]
Here the recorded activation at 0.1 µM is given for each entry.

Past entries and their recorded results:
{"columns": ["compound", "activation at 0.1 µM"],
 "data": [
  ["COCc1nnc2n1Cc1c(C#Cc3ccc(=O)n(C)c3)ncn1-c1ccc(OC)cc1-2", "5 to 20%"],
  ["COCc1nnc2n1Cc1c(C#Cc3cnc(C)[nH]3)ncn1-c1ccc(Cl)cc1-2", "> 50%"],
  ["CC(C)c1noc(-c2ncn3c2Cc2c(Cc4ccc(F)cc4)nnn2-c2cc(OC(F)F)ccc2-3)n1", "20 to 50%"],
  ["COc1ccc(C#Cc2ncn3c2Cc2cnnn2-c2cc(C(F)(F)F)ccc2-3)cn1", "5 to 20%"],
  ["Cc1noc(-c2ncn3c2Cc2cnnn2-c2cc(-c4ccccc4)ccc2-3)n1", "5 to 20%"]
]}

Name the recorded activation at 0.1 µM for Cc1cncc(C#Cc2ncn3c2Cc2cnnn2-c2cc(Cl)ccc2-3)c1 .
20 to 50%

Name the recorded activation at 0.1 µM for COc1ccc2c(c1)-n1nncc1Cc1c(C3=NCC(c4ccncc4)O3)ncn1-2 (stereo not drawn) .
20 to 50%

Name the recorded activation at 0.1 µM for COc1ccc(C#Cc2ncn3c2Cc2cnnn2-c2cc(C(F)(F)F)ccc2-3)cc1 .
20 to 50%

Name the recorded activation at 0.1 µM for COCc1nnc2n1Cc1c(C#Cc3ccnn3C)ncn1-c1ccc(OC)cc1-2 .
> 50%

* * *

test-target: α5β3γ2 GABAA receptors (Homo sapiens, UniProt P18507+P31644)
Sequence (P31644 32-462): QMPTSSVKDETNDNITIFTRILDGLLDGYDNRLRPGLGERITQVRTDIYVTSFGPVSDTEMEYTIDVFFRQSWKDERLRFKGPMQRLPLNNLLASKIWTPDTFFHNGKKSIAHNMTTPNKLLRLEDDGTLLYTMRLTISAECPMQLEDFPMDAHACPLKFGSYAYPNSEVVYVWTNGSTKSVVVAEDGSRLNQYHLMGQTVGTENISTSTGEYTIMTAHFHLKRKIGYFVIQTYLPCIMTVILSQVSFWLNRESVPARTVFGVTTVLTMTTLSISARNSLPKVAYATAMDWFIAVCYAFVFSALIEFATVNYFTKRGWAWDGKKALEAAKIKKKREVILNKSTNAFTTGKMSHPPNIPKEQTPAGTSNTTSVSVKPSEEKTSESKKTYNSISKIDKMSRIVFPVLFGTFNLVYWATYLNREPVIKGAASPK
Sequence (P28472 26-473 partner): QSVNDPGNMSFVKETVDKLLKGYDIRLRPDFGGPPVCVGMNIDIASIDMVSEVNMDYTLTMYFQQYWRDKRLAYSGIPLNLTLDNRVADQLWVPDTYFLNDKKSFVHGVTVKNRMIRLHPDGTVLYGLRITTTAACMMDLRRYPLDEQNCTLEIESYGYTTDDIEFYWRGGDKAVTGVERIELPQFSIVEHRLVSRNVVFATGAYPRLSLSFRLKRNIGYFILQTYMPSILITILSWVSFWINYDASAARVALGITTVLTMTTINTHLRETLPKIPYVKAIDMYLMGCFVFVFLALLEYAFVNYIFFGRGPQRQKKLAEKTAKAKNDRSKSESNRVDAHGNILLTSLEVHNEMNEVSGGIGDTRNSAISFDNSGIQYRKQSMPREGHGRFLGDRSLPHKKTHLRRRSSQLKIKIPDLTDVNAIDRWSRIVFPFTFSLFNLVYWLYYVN
Sequence (P18507 40-475): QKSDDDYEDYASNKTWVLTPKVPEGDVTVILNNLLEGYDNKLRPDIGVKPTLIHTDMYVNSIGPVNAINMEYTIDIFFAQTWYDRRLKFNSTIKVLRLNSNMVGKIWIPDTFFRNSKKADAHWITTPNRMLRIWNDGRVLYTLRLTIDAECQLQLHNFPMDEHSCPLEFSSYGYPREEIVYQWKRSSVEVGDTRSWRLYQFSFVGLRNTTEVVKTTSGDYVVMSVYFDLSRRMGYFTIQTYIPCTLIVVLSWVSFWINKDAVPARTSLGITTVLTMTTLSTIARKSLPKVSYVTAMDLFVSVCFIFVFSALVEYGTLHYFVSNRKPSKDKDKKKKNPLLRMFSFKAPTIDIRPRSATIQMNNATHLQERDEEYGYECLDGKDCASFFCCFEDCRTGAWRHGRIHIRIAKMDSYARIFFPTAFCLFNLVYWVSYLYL
method-summary: [3H]Ro15-1788 binding, membranes of Ltk cells stably expressing α5β3γ2 GABAA receptors
condition-info: ranges; inhibition of [3H]Ro15-1788 binding
pKi: −log10 of the molar value.
result-type: pKi

{"columns": ["compound-structure-string", "result"],
 "data": [
  ["COCc1nnn2c1Cc1c(C3=NC[C@H](c4ccc(Cl)cc4)O3)ncn1-c1ccc(Cl)cc1-2", "> 7.00"]
]}

// lookup pKi | system=α5β3γ2 GABAA receptors (Homo sapiens, UniProt P18507+P31644) | key= COCc1nnc2n1Cc1c(C#Cc3ccc(Cl)cn3)ncn1-c1ccc(Cl)cc1-2
> 7.00

// lookup pKi | system=α5β3γ2 GABAA receptors (Homo sapiens, UniProt P18507+P31644) | key= COCc1nnc2n1Cc1c(C#Cc3cnc(C)nc3)ncn1-c1ccc(Cl)cc1-2
6.00 to 7.00

// lookup pKi | system=α5β3γ2 GABAA receptors (Homo sapiens, UniProt P18507+P31644) | key= Fc1ccc(-n2cc(-c3ncn4c3Cc3cnnn3-c3cc(Cl)ccc3-4)nn2)cc1
> 7.00

// lookup pKi | system=α5β3γ2 GABAA receptors (Homo sapiens, UniProt P18507+P31644) | key= FC(F)(F)Oc1ccc2c(c1)-n1nncc1Cc1c(C3=N[C@H](c4ccccc4)CO3)ncn1-2
> 7.00

// lookup pKi | system=α5β3γ2 GABAA receptors (Homo sapiens, UniProt P18507+P31644) | key= COCc1nnc2n1Cc1c(C#Cc3cnc4occc4c3)ncn1-c1ccc(Cl)cc1-2
> 7.00

// lookup pKi | system=α5β3γ2 GABAA receptors (Homo sapiens, UniProt P18507+P31644) | key= Fc1ccccc1OCc1ncn2c1Cc1cnnn1-c1cc(Cl)ccc1-2
6.00 to 7.00

// lookup pKi | system=α5β3γ2 GABAA receptors (Homo sapiens, UniProt P18507+P31644) | key= COCc1nnc2n1Cc1c(C#Cc3ccc4ncccc4c3)ncn1-c1ccc(OC)cc1-2
> 7.00
